Items are presented alongside their recorded Ratio IC50.
- Species on record: Homo sapiens
- assay_overview: Selectivity ratio of IC50 for human NAv1.2 to IC50 for human Nav1.8

// worked examples, Ratio IC50 included
Cc1cc(C)cc(NC(=O)c2nsc(-c3ccc(OC(F)(F)F)cc3)n2)c1 > 30
Cc1cc(C)cc(NC(=O)c2ccnc(-c3ccc(OC(F)(F)F)cc3)c2)c1 > 30
Cc1cc(C)cc(NC(=O)c2csc(-c3ccc(OC(F)(F)F)cc3)n2)c1 > 30

Here's the next entry for you.
Tell me its Ratio IC50 given COc1cc(NC(=O)c2ccc(-c3ccc(Cl)cc3)o2)cc(OC)c1 as the entry.
100

All figures here come from ChEMBL document CHEMBL1268885.
